Items are presented alongside their recorded recombinant barcode read abundance (log10).
Test: recombinant barcode read abundance after kanamycin selection (control-corrected) (log10(CPM+1)); higher = more efficient recombination; sequences stand for … in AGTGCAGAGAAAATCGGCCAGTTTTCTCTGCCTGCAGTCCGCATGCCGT…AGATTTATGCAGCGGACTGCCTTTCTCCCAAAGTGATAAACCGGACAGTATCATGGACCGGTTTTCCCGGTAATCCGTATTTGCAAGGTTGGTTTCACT; site = the 11-nt target
Experimental endpoint: recombinant barcode read abundance (log10)

sequence_chain="TGCTACCCTTGGGTTCTAACCTGTTGCCT (site TTCTACCCTAG)" result=0.213
sequence_chain="CCTCACTCTTGGGTTCTAACCTGTTGCTT (site CCTCAGTCTAA)" result=0.00592
sequence_chain="TAACGTCCTTGGGTTCTAACCTGTTGCGT (site TAACGTCCTAC)" result=1.4
sequence_chain="CGGGCCTCTTGGGTTCTAACCTGTTGCTC (site CGGGCCTCTCA)" result=0.0404
sequence_chain="CGGCCACCTTGGGTTCTAACCTGTTGCCT (site CGGCCACCTAG)" result=2.02

====

Assay: recombinant UMI read abundance after kanamycin selection (control-corrected) (log10(CPM+1)); higher = more efficient recombination; extreme values may be limits of the assay; sequences stand for … in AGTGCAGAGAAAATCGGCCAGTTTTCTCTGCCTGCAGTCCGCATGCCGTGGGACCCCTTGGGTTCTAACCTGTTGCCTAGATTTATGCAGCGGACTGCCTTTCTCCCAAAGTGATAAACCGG…AGGTTGGTTTCACT; site = the 11-nt donor
Quick rule: recombinant UMI read abundance (log10) of at least 2 means Met, below that means Not met.

sequence_chain="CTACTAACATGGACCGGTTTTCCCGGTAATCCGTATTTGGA (site CTACTAACTTC)" class_assignment="Not met"
sequence_chain="CAATGATCATGGACCGGTTTTCCCGGTAATCCGTATTTGAA (site CAATGCTCTTT)" class_assignment="Not met"
sequence_chain="ATAAGAACATGGACCGGTTTTCCCGGTAATCCGTATTTGGG (site ATAAGAACTCC)" class_assignment="Not met"
sequence_chain="ACTCGTGCATGGACCGGTTTTCCCGGTAATCCGTATTTGAC (site ACTCGTGCTGT)" class_assignment=Met
sequence_chain="GGAGGTTCATGGACCGGTTTTCCCGGTAATCCGTATTTGAA (site GGAGGTTCTTT)" class_assignment="Not met"

====

Assay: recombinant barcode read abundance after kanamycin selection (control-corrected) (log10(CPM+1)); higher = more efficient recombination; sequences stand for … in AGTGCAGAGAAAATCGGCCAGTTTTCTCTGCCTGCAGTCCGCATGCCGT…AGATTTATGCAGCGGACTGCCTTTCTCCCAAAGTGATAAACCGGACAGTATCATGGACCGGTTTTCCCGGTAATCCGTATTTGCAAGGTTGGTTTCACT; site = the 11-nt target
Label MET when recombinant barcode read abundance (log10) >= 0.3; otherwise NOT MET.

sequence_chain="GCCATGTCTTGGGTTCTAACCTGTTGCCT (site GTCATGTCTAG)" class_assignment="NOT MET"
sequence_chain="GAGTCGGCTTGGGTTCTAACCTGTTGCTT (site GAGCCGGCTAA)" class_assignment="NOT MET"
sequence_chain="TAGAAGGCTTGGGTTCTAACCTGTTGCGT (site TAGAAGGCTAG)" class_assignment="NOT MET"
sequence_chain="CTGATGTCTTGGGTTCTAACCTGTTGCCA (site CTGATGTCTTG)" class_assignment=MET
sequence_chain="GTTCCATCTTGGGTTCTAACCTGTTGCCT (site GTTCCATCTAG)" class_assignment=MET
